target: T1, soluble KDR extracellular domain (ECD) (Calbiochem) (human, UniProt P35968 20-764); test: High Antigen ELISA, KDR coat 500 ng/mL, supernatant 1:6075
T1 construct: extracellular domain; Bought protein; also called KDR-ECD; VEGF Receptor 2 D1-7, Cat. #676490
T1 sequence (P35968 20-764): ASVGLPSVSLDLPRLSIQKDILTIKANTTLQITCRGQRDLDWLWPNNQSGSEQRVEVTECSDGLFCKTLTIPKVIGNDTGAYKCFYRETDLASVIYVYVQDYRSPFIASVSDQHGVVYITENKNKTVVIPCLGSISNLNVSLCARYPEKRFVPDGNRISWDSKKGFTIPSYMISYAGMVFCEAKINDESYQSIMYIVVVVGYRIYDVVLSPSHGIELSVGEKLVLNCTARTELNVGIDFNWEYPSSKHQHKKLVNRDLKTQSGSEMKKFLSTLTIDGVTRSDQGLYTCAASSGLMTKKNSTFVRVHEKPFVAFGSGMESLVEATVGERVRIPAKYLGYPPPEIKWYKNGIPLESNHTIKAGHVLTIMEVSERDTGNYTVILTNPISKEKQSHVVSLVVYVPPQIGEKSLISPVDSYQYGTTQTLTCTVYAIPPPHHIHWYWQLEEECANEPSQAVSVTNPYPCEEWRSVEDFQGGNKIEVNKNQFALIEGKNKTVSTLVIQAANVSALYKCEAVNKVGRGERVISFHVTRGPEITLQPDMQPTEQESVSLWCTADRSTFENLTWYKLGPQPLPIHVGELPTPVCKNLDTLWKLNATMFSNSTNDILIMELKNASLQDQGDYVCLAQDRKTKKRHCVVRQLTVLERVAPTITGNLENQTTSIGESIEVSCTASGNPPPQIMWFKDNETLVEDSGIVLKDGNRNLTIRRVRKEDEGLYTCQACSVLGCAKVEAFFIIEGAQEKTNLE
Item-by-item account of ELISA reading
Give the value as a plain number.

Guide cases for ELISA reading, answers given:
24C9 (antibody, V domains shown, Fully human mAb from XenoMouse hybridoma, tested as hybridoma supernatant) VH: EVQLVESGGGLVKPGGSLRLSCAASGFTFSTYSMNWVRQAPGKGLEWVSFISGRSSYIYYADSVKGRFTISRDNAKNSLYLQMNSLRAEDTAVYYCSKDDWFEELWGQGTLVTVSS VL: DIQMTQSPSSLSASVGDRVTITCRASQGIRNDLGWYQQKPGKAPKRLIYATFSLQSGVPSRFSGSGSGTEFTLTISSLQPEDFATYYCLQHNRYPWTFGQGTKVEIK = 0.2
33C3 (antibody, V domains shown, Fully human mAb from XenoMouse hybridoma, tested as hybridoma supernatant) VH: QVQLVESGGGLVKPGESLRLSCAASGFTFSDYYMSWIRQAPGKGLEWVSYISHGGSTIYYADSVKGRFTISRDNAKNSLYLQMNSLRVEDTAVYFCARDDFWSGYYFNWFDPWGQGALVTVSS VL: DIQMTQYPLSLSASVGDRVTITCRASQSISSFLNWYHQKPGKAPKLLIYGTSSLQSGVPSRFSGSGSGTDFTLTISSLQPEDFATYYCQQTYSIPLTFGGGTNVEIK = 0.31

Now examine the next entry.
# ELISA reading of 30A1 (antibody, V domains shown, Fully human mAb from XenoMouse hybridoma, tested as hybridoma supernatant) VH: QLQLQESGPGLVKPSETLSLTCTVSGGSISSPNYYWGWIRQPPGKGLEWIGTIYYSGNTFYNPSLKSRVTISVDTSKNQFSLKLSSVTAADTAVYYCATQQLVLYYFDFWGQGTLVTVSS VL: EIVLTQSPGTLSLSPGKRAALSCRASQSISSSYLAWYQQKPGQAPRLLIYGASSRATGIPDRFNGSGSGTDFTLTISRLEPEDFAVYYCQQLGSSITFGQGTRLEIK = 1.58
